The entries below come with measured pEC50 values attached.
# test_method_notes: Antiproliferative activity against human MDA-MB-231 cells measured after 48 hrs by MTT assay
# Format: functional, cell-based
# protocol_conditions: MDA-MB-231, 48 h
Structures can show the parent of a compound that is named as a salt.
On this scale, pEC50 is minus log10 of a concentration expressed in M (mol/L).

C=C1C(=O)[C@@]23[C@@H]4OC(C)(C)O[C@@]25OC[C@]2(C6=C(CC[C@H](OCC)O6)CC(C)(C)[C@H]2[C@@H]5O)[C@@H]3CC[C@@H]14 ... 5.21
C=C1C(=O)[C@@]23[C@@H]4OC(C)(C)O[C@@]25OC[C@]2([C@@H](n6cc(-c7ccccc7)nn6)C=CC(C)(C)[C@H]2[C@@H]5O)[C@@H]3CC[C@@H]14 ... 6.32

What value of pEC50 has been reported for the following compound? `C=CCO[C@@H]1CCC2=C(O1)[C@@]13CO[C@@]4(OC(C)(C)O[C@@H]5[C@H]6CC[C@@H]1[C@]54C(=O)C6=C)[C@@H](O)[C@@H]3C(C)(C)C2` 5.48

What value of pEC50 has been reported for the following compound? `C=C1C(=O)[C@@]23[C@@H]4OC(C)(C)O[C@@]25OC[C@]2(C6=C(CC[C@@H](OCC(C)C)O6)CC(C)(C)[C@H]2[C@@H]5O)[C@@H]3CC[C@@H]14` 5.09

What value of pEC50 has been reported for the following compound? `C=C1C(=O)[C@@]23[C@@H]4OC(C)(C)O[C@@]25OC[C@]2(C6=C(CC[C@H](OCCCC)O6)CC(C)(C)[C@H]2[C@@H]5O)[C@@H]3CC[C@@H]14` 5.66

What value of pEC50 has been reported for the following compound? COc1cccc2c1C(=O)c1c(O)c3c(c(O)c1C2=O)C[C@@](O)(C(=O)CO)C[C@@H]3O[C@H]1C[C@H](N)[C@H](O)[C@H](C)O1 [DOXORUBICIN HYDROCHLORIDE] 5.64

What value of pEC50 has been reported for the following compound? `C=CCO[C@H]1CCC2=C(O1)[C@@]13CO[C@@]4(OC(C)(C)O[C@@H]5[C@H]6CC[C@@H]1[C@]54C(=O)C6=C)[C@@H](O)[C@@H]3C(C)(C)C2` 5.15

What value of pEC50 has been reported for the following compound? `C=C1C(=O)[C@@]23[C@@H]4OC(C)(C)O[C@@]25OC[C@]2(C6=C(CC[C@H](OCC(C)C)O6)CC(C)(C)[C@H]2[C@@H]5O)[C@@H]3CC[C@@H]14` 5.74

* * *

# test_method_notes: Anticancer activity against human MT2 cells measured after 48 hrs by trypan blue assay
# Type: functional, cell-based
# protocol_conditions: MT2, 48 h
observable: EC50

What value of EC50 has been reported for the following compound? `C=C1C(=O)[C@]23[C@H](O)[C@H]1CC[C@H]2[C@@]12CO[C@]3(O)[C@@H](O)[C@@H]1C(C)(C)CC[C@@H]2O` 1200 to 2700 nM

* * *

# test_method_notes: Anticancer activity against AML cells isolated from AML-ETO9a leukemia mouse measured after 48 hrs by CCK8 assay
# Type: functional, cell-based
observable: EC50 (nM)
Please give a number only; it is taken to be in nM.

What value of EC50 has been reported for the following compound? C=C1C(=O)[C@]23[C@H](O)[C@H]1CC[C@H]2[C@@]12CO[C@]3(O)[C@@H](O)[C@@H]1C(C)(C)CC[C@@H]2O [ORIDONIN] 2500

Hey, just so you know, these numbers are from ChEMBL document CHEMBL3865791.
